Origin of values: PubChem BioAssay AID1963980

Kindly state viability, T/C for each of the entries shown.
Test system: 475296-252-R-J1-PDC spheroid viability
method summary: Anticancer human tumor 475296-252-R-J1-PDC patient-derived rectal carcinoma cell line growth inhibition [PI3K]
measurement context: second compound 0.0316 µM; first compound 0.1 µM; hits give low values; spheroids with HUVEC and MSC
Unit % implied. Number only.

Q. Using the record for Cn1ncc(Cl)c1-c1cc(C(=O)NC(CN)Cc2cccc(F)c2)sc1Cl (stereo not drawn) + COc1c(OCCCN2CCOCC2)ccc2c3n(c(=NC(=O)c4cnc(N)nc4)nc12)CCN3 , state its measured viability, T/C.
A. 89.4

Q. Fill in reported viability, T/C for this entry: CC1(C)CCC(CN2CCN(c3ccc(C(=O)NS(=O)(=O)c4ccc(NCC5CCOCC5)c([N+](=O)[O-])c4)c(Oc4cnc5[nH]ccc5c4)c3)CC2)=C(c2ccc(Cl)cc2)C1 + Cc1nc(NC(=O)N2CCCC2C(N)=O)sc1-c1ccnc(C(C)(C)C(F)(F)F)c1
A. 90.1

Q. Input CC1(C)CCC(Nc2ncc(C(F)(F)F)c(-c3c[nH]c4c(P(C)(C)=O)c(C#N)ccc34)n2)CN1 (stereo not drawn) + COc1c(OCCCN2CCOCC2)ccc2c3n(c(=NC(=O)c4cnc(N)nc4)nc12)CCN3 , output reported viability, T/C.
A. 86.7

---

System: 475296-252-R-J1-PDC spheroid viability
method summary: Anticancer human tumor 475296-252-R-J1-PDC cell line growth inhibition [PI3K];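 also: spheroids exposed to agents for seven days before readout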
measurement context: second compound 0.316 µM; first compound 0.316 µM; hits give low values; spheroids with HUVEC and MSC
Excerpt: Combinatorial screen of targeted agents with the PI3K inhibitors inavolisib, alpelisib, duvelisib, and copanlisib in multi-cell type tumor spheroids A high-throughput screen of multi-cell type tumor spheroids was designed to identify active combinations of targeted small molecules and PI3K pathway inhibitors. […] Compounds. […] If the clinical Cmax for an agent had not been determined, the highest concentration tested was 10 microM. […]
Please note: viability, T/C exactly at 80% is 0. Only values below 80% get 1.

Q. Field: below-cutoff. Rule: recorded viability, T/C strictly less than 80%. Subject: CCN1CCN(Cc2ccc(Nc3ncc(F)c(-c4cc(F)c5nc(C)n(C(C)C)c5c4)n3)nc2)CC1 + COc1c(OCCCN2CCOCC2)ccc2c3n(c(=NC(=O)c4cnc(N)nc4)nc12)CCN3
A. 1

Q. hey, is viability, T/C for C=CC(=O)N1CCN(c2nc(=O)n(-c3c(C)ccnc3C(C)C)c3nc(-c4c(O)cccc4F)c(F)cc23)C(C)C1 (stereo not given) + Cc1nc(NC(=O)N2CCCC2C(N)=O)sc1-c1ccnc(C(C)(C)C(F)(F)F)c1 lower than 80% or not?
A. 0

Q. Does the reported viability, T/C of the following molecule sit strictly below 80%? CC1(C)CCC(CN2CCN(c3ccc(C(=O)NS(=O)(=O)c4ccc(NCC5CCOCC5)c([N+](=O)[O-])c4)c(Oc4cnc5[nH]ccc5c4)c3)CC2)=C(c2ccc(Cl)cc2)C1 + CC(Nc1ccc2c(c1)OCCn1cc(N3C(=O)OCC3C(F)F)nc1-2)C(N)=O
A. 0

Q. Determine if CC(C)NCC(C(=O)N1CCN(c2ncnc3c2C(C)CC3O)CC1)c1ccc(Cl)cc1 (stereo not given) + CC(Nc1ncnc2nc[nH]c12)c1cc2cccc(Cl)c2c(=O)n1-c1ccccc1 shows viability, T/C strictly lower than 80%.
A. 0

Q. Decide: viability, T/C of CCN1CCN(Cc2ccc(Nc3ncc(F)c(-c4cc(F)c5nc(C)n(C(C)C)c5c4)n3)nc2)CC1 + CC(Nc1ncnc2nc[nH]c12)c1cc2cccc(Cl)c2c(=O)n1-c1ccccc1 strictly below 80%?
A. 0

Q. Determine whether this molecule shows viability, T/C lower than 80% (ties excluded): C=CC(=O)N1CCN(c2nc(=O)n(-c3c(C)ccnc3C(C)C)c3nc(-c4c(O)cccc4F)c(F)cc23)C(C)C1 (stereo not given) + CC(Nc1ncnc2nc[nH]c12)c1cc2cccc(Cl)c2c(=O)n1-c1ccccc1
A. 0

Q. State whether 80% exceeds viability, T/C recorded for CC(C)NCC(C(=O)N1CCN(c2ncnc3c2C(C)CC3O)CC1)c1ccc(Cl)cc1 (stereo not given) + Cc1nc(NC(=O)N2CCCC2C(N)=O)sc1-c1ccnc(C(C)(C)C(F)(F)F)c1 .
A. 0

Q. # check: viability, T/C < 80% for CCN1CCN(Cc2ccc(Nc3ncc(F)c(-c4cc(F)c5nc(C)n(C(C)C)c5c4)n3)nc2)CC1 + CC(Nc1ccc2c(c1)OCCn1cc(N3C(=O)OCC3C(F)F)nc1-2)C(N)=O
A. 0

Q. Here's an entry: CCCS(=O)(=O)Nc1ccc(F)c(C(=O)c2c[nH]c3ncc(-c4ccc(Cl)cc4)cc23)c1F + COc1c(OCCCN2CCOCC2)ccc2c3n(c(=NC(=O)c4cnc(N)nc4)nc12)CCN3 . Is its viability, T/C below 80%?
A. 1

---

System: 475296-252-R-J1-PDC spheroid viability
method summary: Anticancer human tumor 475296-252-R-J1-PDC cell line growth inhibition [PI3K];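 also: spheroids exposed to agents for seven days before readout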
measurement context: second compound 1 µM; first compound 3.16 µM; hits give low values; spheroids with HUVEC and MSC
result type: viability, T/C

Q. Give the measured viability, T/C for CCCS(=O)(=O)Nc1ccc(F)c(C(=O)c2c[nH]c3ncc(-c4ccc(Cl)cc4)cc23)c1F + Cc1nc(NC(=O)N2CCCC2C(N)=O)sc1-c1ccnc(C(C)(C)C(F)(F)F)c1
A. 89.3%

Q. Read off the recorded viability, T/C for C=CC(=O)N1CCN(c2nc(=O)n(-c3c(C)ccnc3C(C)C)c3nc(-c4c(O)cccc4F)c(F)cc23)C(C)C1 (stereo unspecified) + COc1c(OCCCN2CCOCC2)ccc2c3n(c(=NC(=O)c4cnc(N)nc4)nc12)CCN3
A. 58.1%

Q. Specify viability, T/C for CC1(C)CCC(CN2CCN(c3ccc(C(=O)NS(=O)(=O)c4ccc(NCC5CCOCC5)c([N+](=O)[O-])c4)c(Oc4cnc5[nH]ccc5c4)c3)CC2)=C(c2ccc(Cl)cc2)C1 + COc1c(OCCCN2CCOCC2)ccc2c3n(c(=NC(=O)c4cnc(N)nc4)nc12)CCN3 and stop.
A. 62.4%

Q. Read the entry CC(C)NCC(C(=O)N1CCN(c2ncnc3c2C(C)CC3O)CC1)c1ccc(Cl)cc1 (stereo unspecified) + CC(Nc1ncnc2nc[nH]c12)c1cc2cccc(Cl)c2c(=O)n1-c1ccccc1 and write its reported viability, T/C.
A. 54.4%

Q. Answer with reported viability, T/C of Cn1ncc(Cl)c1-c1cc(C(=O)NC(CN)Cc2cccc(F)c2)sc1Cl (stereo unspecified) + CC(Nc1ncnc2nc[nH]c12)c1cc2cccc(Cl)c2c(=O)n1-c1ccccc1
A. 55.6%

Q. Look up viability, T/C of C[C@@H](NC(=O)c1ncnc(N)c1Cl)c1ncc(C(=O)Nc2cc(C(F)(F)F)c(Cl)cn2)s1 + COc1c(OCCCN2CCOCC2)ccc2c3n(c(=NC(=O)c4cnc(N)nc4)nc12)CCN3 and report it.
A. 54.9%

Q. Report viability, T/C, nothing else, for this compound: CC(Cn1ccc(-c2ccc(C#N)c(Cl)c2)n1)NC(=O)c1cc(C(C)O)[nH]n1 (stereo unspecified) + CC(Nc1ncnc2nc[nH]c12)c1cc2cccc(Cl)c2c(=O)n1-c1ccccc1
A. 113%

Q. Give recorded viability, T/C. C[C@@H](NC(=O)c1ncnc(N)c1Cl)c1ncc(C(=O)Nc2cc(C(F)(F)F)c(Cl)cn2)s1 + CC(Nc1ncnc2nc[nH]c12)c1cc2cccc(Cl)c2c(=O)n1-c1ccccc1
A. 106%

Q. Indicate its recorded viability, T/C; the compound in question is CCCS(=O)(=O)Nc1ccc(F)c(C(=O)c2c[nH]c3ncc(-c4ccc(Cl)cc4)cc23)c1F + COc1c(OCCCN2CCOCC2)ccc2c3n(c(=NC(=O)c4cnc(N)nc4)nc12)CCN3
A. 73.3%

Q. Provide measured viability, T/C value, entry: CC(Cn1ccc(-c2ccc(C#N)c(Cl)c2)n1)NC(=O)c1cc(C(C)O)[nH]n1 (stereo unspecified) + COc1c(OCCCN2CCOCC2)ccc2c3n(c(=NC(=O)c4cnc(N)nc4)nc12)CCN3
A. 71%

Q. Fill in reported viability, T/C for this entry: CC(Cn1ccc(-c2ccc(C#N)c(Cl)c2)n1)NC(=O)c1cc(C(C)O)[nH]n1 (stereo unspecified) + CC(Nc1ccc2c(c1)OCCn1cc(N3C(=O)OCC3C(F)F)nc1-2)C(N)=O
A. 80.6%

Q. Find the measured viability, T/C of CCCS(=O)(=O)Nc1ccc(F)c(C(=O)c2c[nH]c3ncc(-c4ccc(Cl)cc4)cc23)c1F + CC(Nc1ccc2c(c1)OCCn1cc(N3C(=O)OCC3C(F)F)nc1-2)C(N)=O and report it.
A. 83.1%

Q. For the compound Cn1nccc1Nc1nccc(-c2ccn(C(CO)c3ccc(Cl)c(F)c3)c(=O)c2)n1 (stereo unspecified) + CC(Nc1ccc2c(c1)OCCn1cc(N3C(=O)OCC3C(F)F)nc1-2)C(N)=O , report viability, T/C.
A. 53.3%

Q. Please supply the value of reported viability, T/C for the item Cn1ncc(Cl)c1-c1cc(C(=O)NC(CN)Cc2cccc(F)c2)sc1Cl (stereo unspecified) + COc1c(OCCCN2CCOCC2)ccc2c3n(c(=NC(=O)c4cnc(N)nc4)nc12)CCN3
A. 36.1%

Q. Look up viability, T/C of CCCS(=O)(=O)Nc1ccc(F)c(C(=O)c2c[nH]c3ncc(-c4ccc(Cl)cc4)cc23)c1F + CC(Nc1ncnc2nc[nH]c12)c1cc2cccc(Cl)c2c(=O)n1-c1ccccc1 and report it.
A. 96.7%

Q. Write down viability, T/C measured for item CC1(C)CCC(Nc2ncc(C(F)(F)F)c(-c3c[nH]c4c(P(C)(C)=O)c(C#N)ccc34)n2)CN1 (stereo unspecified) + CC(Nc1ncnc2nc[nH]c12)c1cc2cccc(Cl)c2c(=O)n1-c1ccccc1
A. 166%

Q. Indicate the recorded viability, T/C value for this compound: C#Cc1c(F)ccc2cc(O)cc(-c3ncc4c(N5CC6CCC(C5)N6)nc(OCC56CCCN5CC(F)C6)nc4c3F)c12 (stereo unspecified) + CC(Nc1ncnc2nc[nH]c12)c1cc2cccc(Cl)c2c(=O)n1-c1ccccc1
A. 57.9%

Q. Answer with the recorded viability, T/C for the compound listed here: Cn1ncc(Cl)c1-c1cc(C(=O)NC(CN)Cc2cccc(F)c2)sc1Cl (stereo unspecified) + Cc1nc(NC(=O)N2CCCC2C(N)=O)sc1-c1ccnc(C(C)(C)C(F)(F)F)c1
A. 62.8%

Q. For C=CC(=O)N1CCN(c2nc(=O)n(-c3c(C)ccnc3C(C)C)c3nc(-c4c(O)cccc4F)c(F)cc23)C(C)C1 (stereo unspecified) + CC(Nc1ncnc2nc[nH]c12)c1cc2cccc(Cl)c2c(=O)n1-c1ccccc1 , write its viability, T/C.
A. 106%

Q. Tell me viability, T/C reported for Cn1nccc1Nc1nccc(-c2ccn(C(CO)c3ccc(Cl)c(F)c3)c(=O)c2)n1 (stereo unspecified) + CC(Nc1ncnc2nc[nH]c12)c1cc2cccc(Cl)c2c(=O)n1-c1ccccc1
A. 93.6%

Q. Query viability, T/C for CC1(C)CCC(Nc2ncc(C(F)(F)F)c(-c3c[nH]c4c(P(C)(C)=O)c(C#N)ccc34)n2)CN1 (stereo unspecified) + Cc1nc(NC(=O)N2CCCC2C(N)=O)sc1-c1ccnc(C(C)(C)C(F)(F)F)c1
A. 165%
